test system: T47D; test: NCI tumour cell line growth inhibition, 48 h
Structures can show the parent of a compound that is named as a salt. Active and inactive are the calls of the source. Cut-off read from the data, not from the text of the source: active = GI50 up to about 1.1 µM and inactive = higher. Residues, ends and D or L forms follow the SMILES beside them. *: point of attachment. Tfa = O=C(C(F)(F)F)*
For each of the molecules below, state its GI50.

Sure, the documented GI50 for `O=C(O)CCCSc1nc2ccccc2s1` is > 100 µM (inactive)

Sure, the documented GI50 for `C[C@@H](CN1CC(=O)NC(=O)C1)N1CC(=O)NC(=O)C1` is 109 µM (inactive)

Sure, the documented GI50 for `C[C@]12CC[C@@H]3c4ccc(OP(=O)(O)O)cc4CC[C@H]3[C@@H]1CCC2=O` is 39.6 µM (inactive)

Sure, the documented GI50 for `N#C[C@@H](c1nc2ccccc2s1)c1ncccc1[N+](=O)[O-]` is 4.18 µM (inactive)

Sure, the documented GI50 for O=C(Nc1nnc(-c2ccc(Cl)cc2)o1)C(SC(=S)N1CCCCC1)c1ccccc1 (stereo not given) is 27.2 µM (inactive)

Sure, the documented GI50 for CN(C)c1ccc(/C=C(\NC(=O)c2ccccc2)C(=O)NC(CCC(=O)O)C(=O)O)cc1 (stereo not given) is > 100 µM (inactive)

Sure, the documented GI50 for `CC(C)/C(Cl)=N/OC(=O)Nc1ccc(Cl)c(Cl)c1` is 4.29 µM (inactive)

Sure, the documented GI50 for `OC(c1ccc(F)cc1)(c1ccc(F)cc1)C1CC1` is 38 µM (inactive)

Sure, the documented GI50 for `O=C1CSc2nnc(CCCCCCCCc3nnc4n3NC(=O)CS4)n2N1` is > 100 µM (inactive)

Sure, the documented GI50 for `Nc1ccc(Sc2c3ccccc3nc3ccccc23)cc1` is 2.06 µM (inactive)

Sure, the documented GI50 for `C=CCOC(=O)CC[N+]1=CCC(c2ccccc2)(c2ccccc2)O1` is > 100 µM (inactive)

Sure, the documented GI50 for `Clc1ccc(N/N=C(\c2ccccc2)c2ccccn2)nc1` is < 0.01 µM (active)

Sure, the documented GI50 for CC(=O)OCC1OC(n2c(C)c(/N=N/c3ccc(Cl)cc3)c(C)c(C#N)c2=S)C(OC(C)=O)C(OC(C)=O)C1OC(C)=O (stereo not given) is > 100 µM (inactive)

Sure, the documented GI50 for `CC(C)(C)OC/C=C(\Br)CO` is > 100 µM (inactive)

Sure, the documented GI50 for O=C1CS(=O)(=O)C(c2cccc(Oc3ccccc3)c2)N1c1cc(Cl)ccc1Cl (stereo not given) is 15.6 µM (inactive)

Sure, the documented GI50 for `CCn1cc(C(=O)O)c(=O)c2cc3c(cc21)S(=O)(=O)CC3` is > 100 µM (inactive)

Sure, the documented GI50 for `c1ccc(-c2sc(-c3ccccc3)c3c2C2CCC3C2)cc1` is 38.7 µM (inactive)

Sure, the documented GI50 for `CCNC(=S)NNC(=O)c1ccccc1Nc1ccccc1C(=O)NNC(=S)NCC` is > 100 µM (inactive)

Sure, the documented GI50 for `CC(C)(CO)NC1=C(Cl)C(=O)c2c(O)ccc(O)c2C1=O` is 1.93 µM (inactive)

Sure, the documented GI50 for `CC(C)Cc1cnc(CC(C)C)c(=O)[nH]1` is > 100 µM (inactive)

Sure, the documented GI50 for O=C(O)C1CCCCN1CCc1c[nH]c2ccccc12 (stereo not given) is > 100 µM (inactive)

Sure, the documented GI50 for `CC(C)=CCNc1ncnc2c1ncn2CCC(=O)O` is > 100 µM (inactive)

Sure, the documented GI50 for `C[n+]1c2ccccc2n2c3ccccc3c(NCc3ccco3)c(C#N)c21` is 3.67 µM (inactive)

Sure, the documented GI50 for `OC(Cc1cc(CC(O)(C(F)(F)F)C(F)(F)F)nc(CC(O)(C(F)(F)F)C(F)(F)F)c1)(C(F)(F)F)C(F)(F)F` is 0.755 µM (active)

Sure, the documented GI50 for `CC(C)(C)c1nc2c(o1)C(=O)c1ccccc1C2=O` is 0.627 µM (active)

Sure, the documented GI50 for O=C(O)CC(NC(=O)C(F)(F)F)C(=O)NC(Cc1ccc(O)cc1)C(=O)O (stereo not drawn) (Tfa-Asp-Tyr-OH; configuration not given here) is > 50 µM (inactive)

Sure, the documented GI50 for `NCCCCNC1(c2cc3ccccc3s2)CCCCC1` is 2.29 µM (inactive)

Sure, the documented GI50 for `C=C(C(=O)O)[C@@H]1C[C@@H]2O[C@H]1CC(C)=CCC/C(C)=C/CC[C@@]2(C)O` is > 100 µM (inactive)

Sure, the documented GI50 for `CCOC(=O)CCCSCCCC(=O)CCCSCCCC(=O)OCC` is > 100 µM (inactive)

Sure, the documented GI50 for `Cn1ccnc1CCc1ccc(F)cc1F` is > 100 µM (inactive)

* * *

tested on: MCF7; experiment: NCI tumour cell line growth inhibition, 48 h
The source made the active and inactive calls. Cut-off read from the data, not from the text of the source: active = GI50 up to about 1.1 µM and inactive = higher.
Pick from YES for active, NO for inactive when you respond.

# input What was the test verdict on CCCCCC(/C=C/C1CCC(=O)C1)OCOCCOC (stereo not given) ?
# output NO

# input What was the test verdict on CC(=O)c1cccc2c1CC1(C2)Cc2ccc3c(c2C1=O)CCC3 (stereo not given) ?
# output NO

# input What was the test verdict on `Clc1ccc(-c2nn3c(COc4cccc(OCc5nnc6sc(-c7ccc(Cl)cc7)nn56)c4)nnc3s2)cc1` ?
# output NO

# input What was the test verdict on `CSc1nn(C)cc2nc(C)nc1-2` ?
# output NO

# input What was the test verdict on `CC(C)(CN1CCCCC1)C(/C=C/c1ccc(Cl)cc1)=N\NC(=O)N/N=C(/C=C/c1ccc(Cl)cc1)C(C)(C)CN1CCCCC1` ?
# output NO

# input What was the test verdict on `Cc1ccccc1-c1nc2c(N)nc(N)nc2nc1N` ?
# output NO

# input What was the test verdict on `Cc1ccc(NCCN(C)C)c2c(=O)c3cc(O)ccc3sc12` ?
# output YES

# input What was the test verdict on COc1ccc(C(OCC2OC(n3cc(C)c(=O)[nH]c3=O)CC2n2cc(Cn3cc(Br)c(=O)[nH]c3=O)nn2)(c2ccccc2)c2ccccc2)cc1 (stereo not given) ?
# output NO

# input What was the test verdict on `O=c1/c(=C/c2ccc([N+](=O)[O-])o2)sc2n1[C@@H](c1ccc3c(c1)OCO3)C=C(c1cc(F)c(Cl)cc1Cl)N=2` ?
# output NO

# input What was the test verdict on `O=C(c1ccc(Cl)cc1)c1cnc(Nc2ccccc2Cl)s1` ?
# output NO

# input What was the test verdict on S=C1NC2=C(COc3ccccc32)C(c2ccc(Cl)cc2)N1 (stereo not given) ?
# output NO

# input What was the test verdict on NC(CCOCCP(=O)(O)CCOCCC(N)C(=O)O)C(=O)O (stereo not given) ?
# output NO

# input What was the test verdict on `OB1OCc2ccccc21` ?
# output NO

# input What was the test verdict on `Cc1nn(-c2ccccc2)c2nc(S)cnc12` ?
# output NO

# input What was the test verdict on `CCN(CC)CCOC(=O)Cc1cccc2c(=O)cc(-c3ccccc3)oc12` ?
# output NO

# input What was the test verdict on `Nc1ccc(-c2nc3ccccc3s2)cc1Cl` ?
# output YES

# input What was the test verdict on `O=C(c1ccc(O)c([N+](=O)[O-])c1)c1ccc(O)c([N+](=O)[O-])c1` ?
# output NO

# input What was the test verdict on `Cc1cc(N(CCC#N)CCC#N)ccc1C(/N=N/c1ccc(Cl)cc1)=N\NC(=O)c1cc(Cl)ccc1O` ?
# output NO

# input What was the test verdict on `COc1ccccc1/C(=N\OCCC(=O)O)c1cccs1` ?
# output NO

# input What was the test verdict on `COc1nc(C)nc2sc3c(c12)CCCC3` ?
# output NO

* * *

test system: SK-MEL-2; experiment: NCI tumour cell line growth inhibition, 48 h
Calls of active or inactive are those of the source. Rule as the data show it: active = GI50 up to about 1.1 µM and inactive = higher.
Pick from active, inactive when you respond.

# input What was the test verdict on CC1=CC(=O)[C@@H](O)[C@]2(C)[C@H]3[C@@]4(O)OC[C@@]35[C@@H](C[C@@H]12)OC(=O)C(OC(=O)CC1=CCCC1)[C@H]5[C@@H](C)[C@H]4O (some centres not stated) ?
# output active

# input What was the test verdict on `Cc1nc2ccccc2c(=O)n1NC(=S)Nc1cccc(Cl)c1` ?
# output inactive

# input What was the test verdict on `Cc1cccc(-c2nnc(S)[nH]2)c1` ?
# output inactive

# input What was the test verdict on CC(c1ccccc1)N1CC(C)(c2ccccc2)N(O)C(c2ccccc2)C1C (configuration not stated) ?
# output inactive

# input What was the test verdict on `Cc1cnc(-n2c(C)nc3cc(Cl)ccc3c2=O)s1` ?
# output inactive

# input What was the test verdict on O=CC1=CCC2c3[nH]c4ccccc4c3CCN2C1 (configuration not stated) ?
# output inactive

# input What was the test verdict on `O=C1O[C@]2(c3ccccc3)C(c3ccccc3)=C[C@]2(C(=O)c2ccccc2)C1=O` ?
# output inactive
